- protocol-notes: Drug level in healthy human at 10 mg, qd for 10 days administered as suspension measured after last dose
- Type: ADME, organism-based
- study-conditions: in vivo, read-out: Drug uptake
property-measured: concentration at 240 h (ng/mL)
Respond with the bare value in ng/mL.

Measured concentration at 240 h of C[C@@H]1CCO[C@H]2Cn3cc(C(=O)NCc4ccc(F)cc4F)c(=O)c([O-])c3C(=O)N12.[Na+] [DOLUTEGRAVIR SODIUM] : 350

---

- protocol-notes: AUC (0-t) in healthy human at 50 mg administered as single dose suspension
- Format: ADME, organism-based
- study-conditions: plasma
property-measured: AUC(0-t) (ng·h/mL)
Respond with the bare value in ng·h/mL.

Measured AUC(0-t) of C[C@@H]1CCO[C@H]2Cn3cc(C(=O)NCc4ccc(F)cc4F)c(=O)c([O-])c3C(=O)N12.[Na+] [DOLUTEGRAVIR SODIUM] : 70800

---

- protocol-notes: Apparent oral clearance in healthy human at 100 mg administered as single dose suspension
- Format: ADME, organism-based
- study-conditions: in vivo
property-measured: CL/F (mL/min)
Respond with the bare value in mL/min.

Measured CL/F of C[C@@H]1CCO[C@H]2Cn3cc(C(=O)NCc4ccc(F)cc4F)c(=O)c([O-])c3C(=O)N12.[Na+] [DOLUTEGRAVIR SODIUM] : 12.3

---

- protocol-notes: AUC (0-infinity) in healthy human at 2 mg administered as single dose suspension
- Format: ADME, organism-based
- Design: dose 2 mg, time infinity
- study-conditions: plasma
property-measured: AUC(0-inf)
Number first, unit second: that is the form wanted.

Measured AUC(0-inf) of C[C@@H]1CCO[C@H]2Cn3cc(C(=O)NCc4ccc(F)cc4F)c(=O)c([O-])c3C(=O)N12.[Na+] [DOLUTEGRAVIR SODIUM] : 2780 ng·h/mL

---

- protocol-notes: Cmax in healthy human at 100 mg administered as single dose suspension
- Type: ADME, organism-based
- Set-up: dose 100 mg
- study-conditions: in vivo
property-measured: Cmax (ng/mL)
Respond with the bare value in ng/mL.

Measured Cmax of C[C@@H]1CCO[C@H]2Cn3cc(C(=O)NCc4ccc(F)cc4F)c(=O)c([O-])c3C(=O)N12.[Na+] [DOLUTEGRAVIR SODIUM] : 8140

---

- protocol-notes: Drug level at 24 hrs in healthy human at 2 mg administered as single dose suspension
- Assay type: ADME, organism-based
- study-conditions: in vivo, read-out: Drug uptake
property-measured: concentration at 24 h (ng/mL)
Respond with the bare value in ng/mL.

Measured concentration at 24 h of C[C@@H]1CCO[C@H]2Cn3cc(C(=O)NCc4ccc(F)cc4F)c(=O)c([O-])c3C(=O)N12.[Na+] [DOLUTEGRAVIR SODIUM] : 38.2

---

- protocol-notes: Cmax in healthy human at 25 mg administered as single dose suspension
- Format: ADME, organism-based
- Parameters: dose 25 mg
- study-conditions: in vivo
property-measured: Cmax (ng/mL)
Respond with the bare value in ng/mL.

Measured Cmax of C[C@@H]1CCO[C@H]2Cn3cc(C(=O)NCc4ccc(F)cc4F)c(=O)c([O-])c3C(=O)N12.[Na+] [DOLUTEGRAVIR SODIUM] : 2760
